- TESTED TARGET: recombinant human TGR5 (Homo sapiens)
- Sequence (Q8TDU6 whole entry): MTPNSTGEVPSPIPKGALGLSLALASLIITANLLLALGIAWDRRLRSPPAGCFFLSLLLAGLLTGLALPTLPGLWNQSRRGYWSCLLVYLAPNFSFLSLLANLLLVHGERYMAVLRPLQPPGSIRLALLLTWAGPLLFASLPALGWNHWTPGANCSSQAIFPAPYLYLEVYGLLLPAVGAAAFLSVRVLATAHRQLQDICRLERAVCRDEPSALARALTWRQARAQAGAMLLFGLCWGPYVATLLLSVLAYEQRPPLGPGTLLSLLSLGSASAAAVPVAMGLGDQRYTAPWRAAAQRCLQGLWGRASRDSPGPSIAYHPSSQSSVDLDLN
- ASSAY INFO: cAMP assay (cAMP accumulation, HTRF) in CHOK1 cells stably expressing TGR5
- TEST CONTEXT: CHOK1 cells stably expressing human TGR5, 30 minutes at RT, 1% DMSO
Counter-ions that a name gives are not always drawn.
READOUT NAME: log10 of EC50 (log10 of the value in nM)

>>> number("Cc1cccc(OCCCC(=O)N2CCCc3c(-c4cccc(COC(=O)N[C@H](Cc5c[nH]cn5)C(=O)O)c4)cccc32)c1C")
3.60
>>> number("Cc1cccc(OCCCC(=O)N2CCCc3c(-c4cccc(COC(=O)N[C@@H](C)CC(=O)O)c4)cccc32)c1C")
2.77
>>> number("Cc1c(Cl)cccc1OCCOC(=O)N1C[C@@H]2C[C@@H]2c2c(-c3cnn(Cc4cc(OCCOCC(=O)O)ccc4Cl)c3)cccc21")
2.26
>>> number("Cc1cccc(OCCCC(=O)N2C[C@@H]3C[C@@H]3c3c(-c4cnn(Cc5cccc(C(=O)N(CC(=O)O)CC(=O)O)c5)c4)cccc32)c1C")
3.13
>>> number("Cc1c(Cl)cccc1OCCCC(=O)N1C[C@@H]2C[C@@H]2c2c(-c3cnn(Cc4cccc(C(=O)NCCS(=O)(=O)O)c4)c3)cccc21 [Example 138A]")
1.38
>>> number("Cc1c(Cl)cccc1OCCOC(=O)N1C[C@@H]2C[C@@H]2c2c(-c3cnn(Cc4cccc(NC(=O)NCS(=O)(=O)O)c4)c3)cccc21")
2.26
>>> number("Cc1cccc(OCCCC(=O)N2CCCc3c(-c4cnn(Cc5ccc[n+](CC(=O)O)c5)c4)cccc32)c1C [Example 466, TFA salt]")
3.59
>>> number("Cc1cccc(OCCCC(=O)N2CCCc3c(-c4cnn(Cc5cccc(C(=O)NCCS(=O)(=O)O)c5)c4C)cccc32)c1C [Example 168J]")
2.81
>>> number("Cc1cccc(OCCCC(=O)N2CCCc3c(-c4cccc(COC(=O)N(CCCS(=O)(=O)O)C5CC5)c4)cccc32)c1C")
3.46
>>> number("Cc1c(Cl)cccc1OCCOC(=O)N1C[C@@H]2C[C@@H]2c2c(-c3cnn(Cc4cc(C(=O)NCC5(C(=O)O)CC5)ccc4Cl)c3)cccc21")
1.61
>>> number("Cc1cccc(OCCCC(=O)N2CCCc3c(-c4cccc(COC(=O)NC[C@H](NC(=N)N)C(=O)O)c4)cccc32)c1C [Example 168F]")
2.77
>>> number("Cc1c(Cl)cccc1OCCCC(=O)N1CCSc2c(-c3cnn(Cc4cccc(C(=O)O)c4)c3)cccc21")
1.60
>>> number("Cc1cccc(OCCCC(=O)N2CCCc3c(-c4cnn(C(C)c5cccc(NC(=O)NCS(=O)(=O)O)c5)c4)cccc32)c1C (stereo not shown)")
2.83
